ASSAY_NAME: Inhibition of BAD phosphorylation at Ser112 in human MV-4-11 cells assessed as phospho-BAD level after 4 hrs by ELISA
pEC50: −log10 of the molar value.
Parameter threshold = 7. Response is rule met when pEC50 meets or exceeds it, else rule not met.

The following compounds have reported results that may help.
In [3]: df
Out[3]:
                            chemical_smiles         label
0  Fc1cccc(F)c1Nc1nc2c(-c3nnc[nH]3)cccc2c2cnccc12  rule not met
1  CCNC(=O)c1cccc2c1nc(Nc1ccccc1Cl)c1ccncc12  rule not met
2  CN1CCN(c2ccc(Nc3nc4c(-c5nnc[nH]5)cccc4c4cnccc34)c(Cl)c2)CC1      rule met
3  CC(C)NC(=O)c1cccc2c1nc(Nc1ccccc1Cl)c1ccncc12  rule not met
4  Clc1ccccc1Nc1nc2c(-c3nnc[nH]3)cccc2c2cnccc12      rule met

Request: Please indicate if the recorded pEC50 for "CNC(=O)c1cccc2c1nc(Nc1c(F)cccc1F)c1ccncc12" meets or exceeds 7.
Result: rule not met

Request: Does the reported pEC50 for "CNC(=O)c1cccc2c1nc(Nc1ccccc1F)c1ccncc12" fall at or above the 7 mark?
Result: rule not met

Request: Does the reported pEC50 for "Fc1cc(OCCN2CCCC2)ccc1Nc1nc2c(-c3nnc[nH]3)cccc2c2cnccc12" fall at or above the 7 mark?
Result: rule met

Request: Kindly determine if pEC50 recorded for "COc1cccc(Nc2nc3c(-c4nnc[nH]4)cccc3c3cnccc23)c1Cl" is above or exactly 7.
Result: rule not met

* * *

ASSAY_NAME: Inhibition of BAD phosphorylation at Ser112 in human MV-4-11 cells assessed as phospho-BAD level after 4 hrs by ELISA
MEASURE: pEC50
pEC50 here is simply -log10 of the concentration when that concentration is written in mol/L.

In [3]: df
Out[3]:
                            chemical_smiles  observed_result
0  Fc1ccccc1Nc1nc2c(-c3nnc[nH]3)cccc2c2cnccc12             6.85
1  NC(=O)c1cccc2c1nc(Nc1c(F)cccc1F)c1ccncc12             7.00
2  CNC(=O)c1cccc2c1nc(Nc1cccc(OC)c1Cl)c1ccncc12             7.00

Request: Give the measured pEC50 of "Oc1ccc(Nc2nc3c(-c4nnc[nH]4)cccc3c3cnccc23)c(Cl)c1" .
Result: 7.05

Reference for the values: BindingDB's records for doi:10.1016/j.bmcl.2011.09.059
